Can you tell me GI50 for the items I'm about to list?
# Tested on: UACC-62
# Assay Protocol: NCI tumour cell line growth inhibition, 48 h
Activity calls are given as the source filed them. Cut-off read from the data, not from the text of the source: active = GI50 up to about 1.1 µM and inactive = higher. Starred links: 1 amine or outer side, 2 acyl side, 3 side chain; linkers in the order of their positions; H or OH if unused. Positions of bridges follow the written chain, without caps; N, C: chain ends. Non-standard residues stand in square brackets, D forms with d. Residues, ends and D or L forms follow the SMILES beside them. *: point of attachment. X40 = CC[C@H](C)[C@@H](N[*:1])[C@@H](O)CC(=O)[*:2]; NMeY = CN[C@@H](Cc1ccc(O)cc1)C(=O)O; dNMeL = CN[C@H](CC(C)C)C(=O)O; Hiv = CC(C)[C@H](O)C(=O)O; Pyruvoyl = CC(=O)C(=O)*

Query: What measured GI50 goes with "COc1ccc(Nc2nc3c(N)cc(C(F)(F)F)cc3nc2-c2ccccc2)cc1" ?
Response: > 100 µM (inactive)

Query: I would be grateful if you could share the reported GI50 for O=C1c2cccc(O)c2C(=O)c2c(OC3OC(CO)C(O)C(O)C3O)cccc21 (centres undefined) .
Response: 49.8 µM (inactive)

Query: # input compound: "Cc1c(-c2ccccc2)nn2cc(-c3ccccc3)nnc12" ; wanted: its GI50
Response: 17.9 µM (inactive)

Query: Can you look up the measured GI50 of "COc1cc2nn(-c3ccccc3)nc2c2nonc12" for me?
Response: > 100 µM (inactive)

Query: Which GI50 value is on record for "NS(=O)(=O)c1nnc(NC(=O)c2ccccc2)s1" ?
Response: > 100 µM (inactive)

Query: What measured GI50 goes with "Cc1cc2c(c(C(=O)NCCC(=O)N[C@@H](C)C(=O)OCc3ccccc3)c1)Oc1c(cc(C)cc1C(=O)NCCC(=O)N[C@@H](C)C(=O)OCc1ccccc1)S2" ?
Response: > 100 µM (inactive)

Query: Field request: GI50 | item: "CN(C)c1ccc(-c2cc(O)c3cc4c(cc3n2)OCO4)cc1"
Response: > 100 µM (inactive)

Query: Form field: reported GI50 of "COc1cc(-c2ccc(Nc3ccccc3C(=O)O)c(OC)c2)ccc1Nc1ccccc1C(=O)O"
Response: 1.46 µM (inactive)

Query: I have this compound here, CCC(C)N1CN(c2ccccc2)C2(CCN(CC3COc4ccccc4O3)CC2)C1=O (centres undefined) , and I need its recorded GI50.
Response: 19 µM (inactive)

Query: Form field: reported GI50 of "Cc1ccc(SSCCCCCS(=O)O)cc1"
Response: 23.5 µM (inactive)

Query: Need GI50 of "COc1c(O)c(C=O)c2c(O)c(-c3c(C)cc4c(C(C)C)c(OC)c(O)c(C=O)c4c3O)c(C)cc2c1C(C)C" , thanks.
Response: 11.9 µM (inactive)

Query: Returns the measured GI50 for the input compound. Input: NC(=O)CC(Nc1ncc2c(n1)-c1ccccc1OC2)C(=O)O (centres undefined)
Response: > 100 µM (inactive)

Query: Consider the compound C[N+](C)(C)CC(=O)N/N=C(/C=C/c1ccccc1)CC1OC(=O)c2ccccc21 (centres undefined) and give its measured GI50.
Response: > 100 µM (inactive)

Query: Suppose we examine the compound CCCC(=O)OCC1OC(n2cc(F)c(=O)[nH]c2=O)C(F)C1OC(=O)CCC (centres undefined) ; what GI50 value has been reported?
Response: 25.9 µM (inactive)

Query: // lookup GI50 for "N#Cc1nc(-c2ccccc2O)oc1N"
Response: 95.9 µM (inactive)

Query: What value of measured GI50 is listed for COC(=O)[C@]1(c2cc3ccccc3[nH]2)CC2CNC1C1OC(C)(C)OC21 (some centres undefined) ?
Response: > 100 µM (inactive)

Query: I'd like to know its GI50. The compound in question is CN(C)c1ccc(C2SCC(=O)N2c2ccc(Oc3ccc(Cl)cc3)c(Cl)c2)cc1 (centres undefined)
Response: 19 µM (inactive)

Query: Fill in the blank: the reported GI50 of "COc1ccccc1/C=C1\S/C(=N/Nc2nc(C)c(C(C)=O)s2)NC1=O" is ____.
Response: 36.4 µM (inactive)

Query: Requested field: GI50. Item: "CCOC(=O)/C(C#N)=C\C=C1/C=CN=C2NCCN21"
Response: > 100 µM (inactive)

Query: Request the reported GI50 associated with "CCc1nc2ccccc2c(=O)n1/N=C(\N=N\c1ccc(Cl)cc1)c1ccccc1Cl"
Response: > 100 µM (inactive)

Query: // lookup GI50 for "C=Cc1c(-c2ccccc2)cnc2[nH]c3ccccc3c12"
Response: > 50 µM (inactive)

Query: Dear colleague, I am looking for the recorded GI50 of the following compound: COC1(C)C(=O)N2C1N(C(=O)OC(C)(C)C)CC2(C)C (centres undefined)
Response: > 100 µM (inactive)

Query: Data request, read-out GI50, for "c1ccc2c(c1)CCN2CCN1CCc2ccccc21"
Response: > 10 µM (inactive)

Query: Sample O=[N+]([O-])c1ccc2c(c1)nc(Cc1ccc(Cl)cc1)n2C[C@@H]1CCCN2CCCCC12 (some centres undefined) — what was its GI50?
Response: 15.2 µM (inactive)

Query: Recorded GI50 for CC[C@H](C)[C@H]1NC(=O)[C@@H](NC(=O)[C@@H](CC(C)C)N(C)C(=O)[C@@H]2CCCN2C(=O)C(C)=O)[C@@H](C)OC(=O)[C@H](Cc2ccc(OC)cc2)N(C)C(=O)[C@@H]2CCCN2C(=O)[C@H](CC(C)C)NC(=O)[C@H](C(C)C)OC(=O)C[C@@H]1O (Pyruvoyl-P[dNMeL]T[X40][Hiv]LP[NMeY](Me); ester 3-C) , please?
Response: 0.00374 µM (active)

Query: Can you look up the measured GI50 of "NN/C(=N\S(=O)(=O)c1cc(Cl)c(Oc2ccc([N+](=O)[O-])cc2Cl)c(Cl)c1)Nc1ccc(Cl)cc1" for me?
Response: 15.5 µM (inactive)

Query: # query: GI50 of entry CC(=O)O[C@H]1CCc2c(cc(N)c3c2C(=O)C[C@]2(C)C([C@H](C)CCCC(C)C)CCC32C)C1(C)C (some centres undefined)
Response: > 100 µM (inactive)

Query: So what's the measured GI50 for this one? "CC1(C)OC[C@@H]([C@H](C=O)OCc2ccccc2)O1"
Response: > 100 µM (inactive)

Query: GI50 lookup needed for "COc1ccc(/[N+]([O-])=C/c2ccc(OC(=S)S)c(OC)c2)cc1" , thanks.
Response: 99.3 µM (inactive)
